System: PC15
Method notes: qHTS profiling for inhibitors of Plasmodium falciparum proliferation (AID 504749); also: nearly all actives have a fitted effect of over 60% in size
Applied conditions: P. falciparum in erythrocytes, SYBR Green DNA, 72 h; series mostly up to 28.7 µM
Records with an inconclusive call do not appear. Active and inactive are the calls of the source. Calls follow the shape of the dose curve; as a rule, active = well fitted inhibition curve with a large enough effect; inconclusive = small, poorly fitted or top-dose-only effect; inactive = flat fitted curve, though single readings scatter.
Answer with one of the outcomes given here: active, inactive

- Compound: "CO[C@H]1/C=C/O[C@@]2(C)Oc3c(C)c(O)c4c(O)c(c(/C=N\\N5CCN(C6CCCC6)CC5)c(O)c4c3C2=O)NC(=O)/C(C)=C\\C=C\\[C@H](C)[C@H](O)[C@@H](C)[C@@H](O)[C@@H](C)[C@H](OC(C)=O)[C@@H]1C"
  Class name: "active"
- Compound: "C[C@@H]1[C@H](O)[C@@H](C)/C=C/C=C/C=C/C=C/C=C/C=C/C=C/[C@H](O[C@@H]2O[C@H](C)[C@@H](O)[C@H](N)[C@@H]2O)C[C@@H]2O[C@](O)(C[C@@H](O)C[C@@H](O)[C@H](O)CC[C@@H](O)C[C@@H](O)CC(=O)O[C@H]1C)C[C@H](O)[C@H]2C(=O)O"
  Class name: "inactive"
- Compound: "CN1C(=O)CCC1c1cccnc1 (stereo unspecified)"
  Class name: "inactive"
- Compound: "CN=C(N)NCCCC(N)C(=O)O (stereo unspecified)"
  Class name: "inactive"

Input line: Query: recorded result category for CC(/C=C1\SC(=S)N(CC(=O)O)C1=O)=C\c1ccccc1 in this test
Output line: inactive

Input line: // outcome(item) with item = COc1ccc(CCNC[C@@H](O)c2ccc(O)cc2)cc1OC
Output line: inactive
